# Tested on: HOP-62 NSCLC
# measurementNotes: NCI tumour cell line growth inhibition, 48 h
Consider the following compounds; for each one, report its log10 TGI.
Scale: log10; quantity: TGI; unit before log: µM

Query :: What does the record list as log10 TGI for `CN1CCN(CCCOc2ccc3nc(Nc4ccc(F)c(F)c4)ccc3c2)CC1` ?
Result :: 0.59

Query :: Now consider CC/C=C/c1cc2c(cc1O)CCC1C2CC[C@@]2(C)C1CC[C@@H]2O (stereo not given in full) and answer again.
Result :: 1.22

Query :: Try this compound next: O=CC(O)C(O)C(O)C(O)COC(=O)NCCCCC(=O)C(F)(F)C(F)(F)C(F)(F)C(F)(F)C(F)(F)C(F)(F)C(F)(F)F (stereo not given)
Result :: 1.80

Query :: // query: `C/C(=N\Nc1nc2ccccc2[nH]1)c1ncccn1`
Result :: 1.69

Query :: Try this compound next: `O=c1[nH]cc(N=Cc2cc(Cl)ccc2O)c(=O)[nH]1`
Result :: 1.73
